- PROTOCOL DESCRIPTION: in vivo
- ASSAY SETUP: female, ICR, mouse, po, 0.625 mg/kg
MEASURE NAME: AUC(0-t)

MOLECULE	MEASURE NAME	RECORDED RESULT
O=C1CCc2c(OC[C@]3(O)CCN(c4c(F)cc(Cl)cc4F)C[C@H]3O)ccc(F)c2N1 [OPC-167832]	AUC(0-t)	283 ng·h/mL

====

- System: M. caprae ATCC BAA-824
- PROTOCOL DESCRIPTION: MIC by agar proportion method, standard strain
- Type: cell-based
- ASSAY SETUP: ATCCBAA824; M. caprae ATCC BAA-824; agar proportion method; read-out: MIC
Label Satisfied when MIC < 0.1 µg/mL; otherwise Not satisfied.

COMPOUND	CLASS ASSIGNMENT
C[C@]1(COc2ccc(N3CCC(Oc4ccc(OC(F)(F)F)cc4)CC3)cc2)Cn2cc([N+](=O)[O-])nc2O1 [DMD, delamanid]	Satisfied
C[C@H]1COc2c(N3CCN(C)CC3)c(F)cc3c(=O)c(C(=O)O)cn1c23 [LVX, levofloxacin]	Not satisfied
COc1nc2ccc(Br)cc2cc1[C@@H](c1ccccc1)[C@@](O)(CCN(C)C)c1cccc2ccccc12 [BDQ, bedaquiline]	Not satisfied
O=C1CCc2c(OC[C@]3(O)CCN(c4c(F)cc(Cl)cc4F)C[C@H]3O)ccc(F)c2N1 [OPC-167832]	Satisfied
COc1c(N2C[C@@H]3CCCN[C@@H]3C2)c(F)cc2c(=O)c(C(=O)O)cn(C3CC3)c12 [MXF, moxifloxacin]	Satisfied

Source listed as paper PMC7269503.
